Give GI50 for every item shown.
System: SHP-77
Assay: Inhibition of proliferation of SHP-77 cancer cells (Cell Titer-Glo)
Type: cell-based
Settings: Homo sapiens, SHP77, 72 hours

CC[C@@H](C)Nc1nc(Nc2ccc(S(=O)(=O)N3CCOCC3)cc2OC)nc2[nH]cc(C#N)c12 [Example 67] ... < 50 nM
COc1cc(S(=O)(=O)N2CCOCC2)ccc1Nc1nc(NCC(C)C)c2c(C(F)(F)F)c[nH]c2n1 [Example 192] ... 301 to 1000 nM
COc1cc(S(=O)(=O)N2CCOCC2)ccc1Nc1nc(NCC2CCC2)c2c(C#N)c[nH]c2n1 [Example 79] ... < 50 nM
COc1cc(S(=O)(=O)N2CCC(N3CCOCC3)CC2)ccc1Nc1nc(NC2CCCC2)c2c(C(F)(F)F)c[nH]c2n1 [Example 187] ... 301 to 1000 nM
COc1cc(S(=O)(=O)N2CCC(N3CCOCC3)CC2)ccc1Nc1nc(NCC2CCC2)c2c(C(F)(F)F)c[nH]c2n1 [Example 197] ... 301 to 1000 nM
COCC(C)(C)Nc1nc(Nc2ccc(S(=O)(=O)N3CCOCC3)cc2OC)nc2[nH]cc(C(F)(F)F)c12 [Example 175] ... 101 to 300 nM
COc1cc(S(=O)(=O)N2CCOCC2)ccc1Nc1nc(N[C@@H]2CCOC2)c2c(C#N)c[nH]c2n1 [Example 74] ... 101 to 300 nM
CCCCNc1nc(Nc2ccc(S(=O)(=O)N3CCC(N4CCOCC4)CC3)cc2OC)nc2[nH]cc(C#N)c12 [Example 97] ... < 50 nM
CCNc1nc(Nc2ccc(S(=O)(=O)N3CCOCC3)cc2OC)nc2[nH]cc(C(F)(F)F)c12 [Example 191] ... 101 to 300 nM
COc1cc(S(=O)(=O)N2CCOCC2)ccc1Nc1nc(NC2CCCCC2)c2c(C#N)c[nH]c2n1 [Example 73] ... < 50 nM

Please give GI50 for each item listed below.
1. CCNc1nc(Nc2ccc(S(=O)(=O)N3CCC(N4CCOCC4)CC3)cc2OC)nc2[nH]cc(C(F)(F)F)c12 [Example 158, 2,2,2-trifluoroacetate]
2. COc1cc(S(=O)(=O)N2CCC(N3CCOCC3)CC2)ccc1Nc1nc(NCC(C)C)c2c(C#N)c[nH]c2n1 [Example 84]
3. COCC(C)(C)Nc1nc(Nc2ccc(S(=O)(=O)N3CCOCC3)cc2OC)nc2[nH]cc(C#N)c12 [Example 78]
4. CC[C@@H](C)Nc1nc(Nc2ccc(S(=O)(=O)N3CCC(N4CCOCC4)CC3)cc2OC)nc2[nH]cc(C(F)(F)F)c12 [Example 172]
5. COc1cc(S(=O)(=O)N2CCC(N3CCOCC3)CC2)ccc1Nc1nc(NC2CCC2)c2c(C#N)c[nH]c2n1 [Example 89]
6. COc1cc(S(=O)(=O)N2CCC(N3CCOCC3)CC2)ccc1Nc1nc(NCC2CC2)c2c(C#N)c[nH]c2n1 [Example 92]

RESULT:
51 to 100 nM
< 50 nM
< 50 nM
101 to 300 nM
51 to 100 nM
< 50 nM

Please give GI50 for each item listed below.
1. CC[C@@H](C)Nc1nc(Nc2ccc(S(=O)(=O)N3CCC(N4CCOCC4)CC3)cc2OC)nc2[nH]cc(C#N)c12 [Example 86]
2. COc1cc(S(=O)(=O)N2CCOCC2)ccc1Nc1nc(N[C@H]2CCOC2)c2c(C#N)c[nH]c2n1 [Example 75]

RESULT:
["< 50 nM", "< 50 nM"]

Please give GI50 for each item listed below.
1. COc1cc(S(=O)(=O)N2CCC(N3CCOCC3)CC2)ccc1Nc1nc(NC2CCCCC2)c2c(C#N)c[nH]c2n1 [Example 91]
2. COc1cc(S(=O)(=O)N2CCOCC2)ccc1Nc1nc(NCC2CCCC2)c2c(C(F)(F)F)c[nH]c2n1 [Example 194]
3. COc1cc(S(=O)(=O)N2CCC(N3CCOCC3)CC2)ccc1Nc1nc(NC2CCC2)c2c(C(F)(F)F)c[nH]c2n1 [Example 183]
4. COc1cc(S(=O)(=O)N2CCC(N3CCOCC3)CC2)ccc1Nc1nc(NC2CCCC2)c2c(C#N)c[nH]c2n1 [Example 90]
5. COc1cc(S(=O)(=O)N2CCC(N3CCOCC3)CC2)ccc1Nc1nc(NC(C)C)c2c(C(F)(F)F)c[nH]c2n1 [Example 165]

RESULT:
["< 50 nM", "301 to 1000 nM", "301 to 1000 nM", "101 to 300 nM", "51 to 100 nM"]

QUERY: Record lookup: for SHP-77, what GI50 belongs to COc1cc(S(=O)(=O)N2CCOCC2)ccc1Nc1nc(NCC2CCC2)c2c(C(F)(F)F)c[nH]c2n1 [Example 200] ?
RESULT: 301 to 1000 nM

###

Tested on: IL-6
Test: Inhibition of LPS-induced IL-6 secretion of THP-1 monocytes (ELISA)
Type: cell-based, human
Settings: Homo sapiens, THP-1; compound 0.5 μM, LPS 500 ng/mL, 24 hours; read-out: THP1/IL6 (% inhib)
Response key: class 1 means inhibition at 0.5 µM >= 20%; class 0 means inhibition at 0.5 µM < 20%.

Below, 6 compounds whose answers are already recorded.
CCCNc1nc(Nc2ccc(C(=O)N3CCC(N4CCOCC4)CC3)c3c2OCC3)nc2[nH]cc(C(F)(F)F)c12 ... class 0
O=C(c1ccc(Nc2nc(NC3CCCC3)c3c(C(F)(F)F)c[nH]c3n2)c2c1OCCO2)N1CCN(C2COC2)CC1 ... class 1
CCNc1nc(Nc2ccc(C(=O)N3CCN(C4COC4)CC3)c3c2OCCO3)nc2[nH]cc(C(F)(F)F)c12 ... class 1
CNc1nc(Nc2ccc(C(=O)N3CC[C@@H](N4CCOCC4)C3)c3c2OCC3)nc2[nH]cc(C(F)(F)F)c12 ... class 1
CC(C)Nc1nc(Nc2ccc(C(=O)N3CCC(N4CCOCC4)CC3)c3c2OCC3)nc2[nH]cc(C(F)(F)F)c12 ... class 0
CNc1nc(Nc2ccc(C(=O)N3CCC(N4C[C@@H]5C[C@H]4CO5)CC3)c3c2OCC3)nc2[nH]cc(C(F)(F)F)c12 ... class 1

Query compound follows.
QUERY: For this compound, is measured inhibition at 0.5 µM 20% or higher? CNc1nc(Nc2ccc(S(=O)(=O)N3CCC(N4CCOCC4)CC3)cc2OC)nc2[nH]cc(C(F)(F)F)c12 [Example 157, 2,2,2-trifluoroacetate]
RESULT: class 0

###

pIC50: −log10 of the molar value.
// pIC50 collected for human GST-CLK1 (Homo sapiens, UniProt P49759)

Worked examples, 3 compounds total:
COCCNc1nc(Nc2ccc(C(=O)N3CCC(N4CCOCC4)CC3)c3c2OCC3)nc2[nH]cc(C(F)(F)F)c12 [Example 443] ... > 7.00
COc1cc(P2(=O)CCN(C3CC3)CC2)ccc1Nc1nc(NC(C)C)c2c(C#N)c[nH]c2n1 [Example 292] ... > 7.00
CC[C@H](C)Nc1nc(Nc2ccc(S(C)(=O)=O)cc2OC)nc2[nH]cc(C#N)c12 [Example 102] ... 6.00 to 6.52

Please give pIC50 for each item listed below.
1. O=C(c1ccc(Nc2nc(NCC3CCC3)c3c(C(F)(F)F)c[nH]c3n2)c2c1OCCO2)N1CCN(C2COC2)CC1 [Example 424]
2. COCCNc1nc(Nc2ccc(C(=O)N3CCOCC3)c3c2OCC3)nc2[nH]cc(C#N)c12 [Example 358]
3. CNc1nc(Nc2ccc(S(=O)(=O)N3CCC(N4CCOCC4)CC3)cc2OC)nc2[nH]cc(C#N)c12 [Example 81]
4. COc1cc(S(=O)(=O)N2CCOCC2)ccc1Nc1nc(NC2CCCC2)c2c(C#N)c[nH]c2n1 [Example 72]
5. CC(C)Nc1nc(Nc2ccc(C(=O)N3CCOCC3)c3c2OCCO3)nc2[nH]ccc12 [Example 45, 2,2,2-trifluoroacetate]

RESULT:
6.00 to 6.52
6.52 to 7.00
> 7.00
6.00 to 6.52
6.00 to 6.52

###

Target: DYRK1A (Homo sapiens)
Construct: purchased DiscoverX Corp. (ScanMAX Kinase analysis panel, service)
Assay: ScanMAX Kinase analysis panel, DYRK1A
Assay type: binding
Conditions: 1 μM in DMSO; <35% considered inhibitory; read-out: percent control (% control), DYRK1A
Give remaining binding at 1 µM for every item shown.
Answers are plain numbers, in %.

Worked examples, 3 molecules total:
O=C(c1ccc(Nc2nc(C3CC3)c3c(C(F)(F)F)c[nH]c3n2)c2c1OCCO2)N1CCC(N2CCOCC2)CC1 ... 0.5
CNc1nc(Nc2ccc(P3(=O)CCN(C4CC4)CC3)cc2OC)nc2[nH]cc(C(F)(F)F)c12 ... 0.2
C=CCNc1nc(Nc2ccc(S(=O)(=O)N3CCC(N4CCOCC4)CC3)cc2OC)nc2[nH]cc(C#N)c12 ... 2.6

QUERY: # lookup: remaining binding at 1 µM of CNc1nc(Nc2ccc(S(=O)(=O)N3CCC(N4CCOCC4)CC3)cc2OC)nc2[nH]cc(C(F)(F)F)c12 [Example 157, 2,2,2-trifluoroacetate]
RESULT: 0.05
